B1: Tesmin, residues 368 to 403; numbered along this chain, Q9Y4I5 (parent)
chain: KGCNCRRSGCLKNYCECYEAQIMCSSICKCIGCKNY

Variants of: B1
Experiment: abundance fitness (aPCA) (normalised: wild type 0, dead -1); higher = more abundant; growth selection in yeast, the domain comes from the species named
Conditions: Homo sapiens
Reported Endpoint: abundance fitness
Would you mind answering with just the numeric figure?

Which abundance fitness is listed for R6D ?
0.156

Query: abundance fitness; subject: C5W
-0.523

Which abundance fitness is reported for this variant? K29T
0.024

Query (variant): N13M ; field requested: abundance fitness
-0.556

Reported abundance fitness for L11A : what is it?
0.075

abundance fitness for M23D ?
0.152

Entry under review: I31Y . Reported abundance fitness?
-0.322

For the variant E16L , what abundance fitness is on record?
-0.441

What measured abundance fitness goes with E16D ?
-0.522

Look at this variant and give its reported abundance fitness. M23P
-0.136

I am curious: what abundance fitness value has been reported for K29C ?
-0.048

Reported abundance fitness for N13R : what is it?
-0.218

Give the measured abundance fitness of R6L .
0.204

Requested read-out: abundance fitness. Entry: I27W
-0.703

# query: abundance fitness of entry R7T
0.047

Given the variant G32E , what is its reported abundance fitness?
-0.033

# query: abundance fitness of entry S8N
-0.384

Tell me the measured abundance fitness of Y36W , please.
0.02

Query: abundance fitness; subject: C30A
-0.252

Entry Y14S : reported abundance fitness = ?
0.047

Given the variant K12N , what is its reported abundance fitness?
-0.46

Looking for the measured abundance fitness of S8Y , can you help?
-0.514

So what does the record say about abundance fitness for S25A ?
-0.051

If you can, please state the reported abundance fitness value of L11I .
-0.369

Entry C24E has what abundance fitness?
0.051

Please report the recorded abundance fitness for C10N .
-0.405

Quick one: abundance fitness of I31R ?
0.056

Can you look up the measured abundance fitness of L11Y for me?
-0.656

Request the reported abundance fitness associated with N4C
-0.183

Data request, read-out abundance fitness, for S26A
0.05

Entry under review: I31P . Reported abundance fitness?
0.047

Reported abundance fitness for I31C : what is it?
-0.02

Need abundance fitness, item K34G
0.266

Please give the measured abundance fitness for this variant: G9M
-0.269

State the recorded abundance fitness for this entry: C15Q
-0.282

Need abundance fitness of C17E , thanks.
-0.465

Give the measured abundance fitness of G2W .
-0.674

Endpoint output: abundance fitness of Y18N . Value?
0.083

Data request, read-out abundance fitness, for L11E
0.05

// abundance fitness lookup, key: K34W
0.003

Entry C28T has what abundance fitness?
-0.14

Find the recorded abundance fitness belonging to C3P and report it.
-0.577

Quick check: abundance fitness of I31F ?
-0.171

Would you kindly share the measured abundance fitness for C10Q ?
-0.208
